# Procedure Text: Cytotoxicity against human TZM-bl cells
# Format: cell-based
Assay Metric: CC50 (µM)
State just the number; it will be interpreted in µM.

Worked examples, 6 compounds total:
{"columns": ["Line Notation", "Value Units", "CC50"],
 "data": [
  ["C#Cc1cc(C)c(Oc2ccc(N)c(Nc3ccc(C#N)cc3)n2)c(C)c1", "µM", 9.94],
  ["Cc1cc(C)c(Oc2ccc(N)c(Nc3ccc(C#N)cc3)n2)c(C)c1", "µM", 18.6],
  ["Cc1cc(C#N)cc(C)c1Oc1ccc(N)c(Nc2ccc(C#N)cc2)n1", "µM", 8.98],
  ["Cc1cc(I)cc(C)c1Oc1ccc(N)c(Nc2ccc(C#N)cc2)n1", "µM", 16.7],
  ["Cc1cccc(C)c1Oc1ccc(N)c(Nc2ccc(C#N)cc2)n1", "µM", 8.14],
  ["Cc1cc(C#CC(C)(C)O)cc(C)c1Oc1ccc(N)c(Nc2ccc(C#N)cc2)n1", "µM", 8.73]
]}

Now for the compound whose CC50 we want.
## Task Recorded CC50 for Cc1cc(CO)cc(C)c1Oc1ccc(N)c(Nc2ccc(C#N)cc2)n1 , please?
## Result 9.34
